Origin of measurements: ChEMBL document CHEMBL1140158

Measured logD, listed per entry.
# protocol: Lipophilicity, log D of the compound
# Type: physicochemical
# settings: octanol/water
measurement-label: logD

> print(dat)
                               query.smiles  number
1  COCCN1CCN(CCO/N=C2/C(=C3/C(=O)Nc4cc(Br)ccc43)Nc3ccccc32)CC1.Cl.Cl     1.9
2  Cl.O=C1Nc2cc(Br)ccc2/C1=C1/Nc2ccccc2/C1=N\OCCN1CCCC1    1.16
3  CN1CCN(CCO/N=C2/C(=C3/C(=O)Nc4cc(Br)ccc43)Nc3ccccc32)CC1.Cl.Cl    1.74
4  CCN(CC)CCO/N=C1/C(=C2/C(=O)Nc3cc(Br)ccc32)Nc2ccccc21.Cl    1.19
5  Cl.Cl.O=C1Nc2cc(Br)ccc2/C1=C1/Nc2ccccc2/C1=N\OCCN1CCN(CCO)CC1    1.41
6  Cl.Cl.O=C1Nc2cc(Br)ccc2/C1=C1/Nc2ccccc2/C1=N\OCCN1CCN(CCOCCO)CC1    1.46
7  Cl.Cl.O=C1Nc2cc(Br)ccc2/C1=C1/Nc2ccccc2/C1=N\OCCN1CCNCC1   -0.87
8  CN(C)CCO/N=C1/C(=C2/C(=O)Nc3cc(Br)ccc32)Nc2ccccc21.Cl    1.69

----------
# protocol: Solubility in water
# Assay type: physicochemical
Please use yes whenever solubility thermodynamic is not below 200 µg/mL, and no whenever it is.

> print(dat)
                               query.smiles  group
1  Cl.Cl.O=C1Nc2cc(Br)ccc2/C1=C1/Nc2ccccc2/C1=N\OCCN1CCN(CCOCCO)CC1    yes
2  CCN(CC)CCO/N=C1/C(=C2/C(=O)Nc3cc(Br)ccc32)Nc2ccccc21.Cl     no
3  CN1CCN(CCO/N=C2/C(=C3/C(=O)Nc4cc(Br)ccc43)Nc3ccccc32)CC1.Cl.Cl    yes
4  Cl.Cl.O=C1Nc2cc(Br)ccc2/C1=C1/Nc2ccccc2/C1=N\OCCN1CCNCC1    yes
5  CN(C)CCO/N=C1/C(=C2/C(=O)Nc3cc(Br)ccc32)Nc2ccccc21.Cl     no
6  COCCN1CCN(CCO/N=C2/C(=C3/C(=O)Nc4cc(Br)ccc43)Nc3ccccc32)CC1.Cl.Cl    yes
7  Cl.Cl.O=C1Nc2cc(Br)ccc2/C1=C1/Nc2ccccc2/C1=N\OCCN1CCN(CCO)CC1    yes

----------
# protocol: Dissociation constant, pKa of the compound
# Assay type: physicochemical
Please use true (1) whenever pKa is not below 8, and false (0) whenever it is.

> print(dat)
                               query.smiles      group
1  Cl.Cl.O=C1Nc2cc(Br)ccc2/C1=C1/Nc2ccccc2/C1=N\OCCN1CCN(CCO)CC1  false (0)
2  Cl.Cl.O=C1Nc2cc(Br)ccc2/C1=C1/Nc2ccccc2/C1=N\OCCN1CCNCC1   true (1)
3  CN(C)CCO/N=C1/C(=C2/C(=O)Nc3cc(Br)ccc32)Nc2ccccc21.Cl   true (1)
4  COCCN1CCN(CCO/N=C2/C(=C3/C(=O)Nc4cc(Br)ccc43)Nc3ccccc32)CC1.Cl.Cl  false (0)
5  CN1CCN(CCO/N=C2/C(=C3/C(=O)Nc4cc(Br)ccc43)Nc3ccccc32)CC1.Cl.Cl  false (0)
6  Cl.Cl.O=C1Nc2cc(Br)ccc2/C1=C1/Nc2ccccc2/C1=N\OCCN1CCN(CCOCCO)CC1  false (0)
7  CCN(CC)CCO/N=C1/C(=C2/C(=O)Nc3cc(Br)ccc32)Nc2ccccc21.Cl   true (1)
8  Cl.O=C1Nc2cc(Br)ccc2/C1=C1/Nc2ccccc2/C1=N\OCCN1CCCC1   true (1)

----------
# System: SH-SY5Y
# protocol: Cytotoxicity against human SH-SY5Y cells after 48 hrs by MTS reduction assay
# Assay type: cell-based
# settings: Homo sapiens, SH-SY5Y, 48 h
pIC50: −log10 of the molar value.
measurement-label: pIC50

> print(dat)
                                    compound  measurement.label  inequality.operator  number
 1  Cl.Cl.O=C1Nc2cc(Br)ccc2/C1=C1/Nc2ccccc2/C1=N\OCCN1CCN(CCOCCO)CC1              pIC50                    =    4.01
 2  Cl.O=C1Nc2cc(Br)ccc2/C1=C1/Nc2ccccc2/C1=N\OCCN1CCCC1              pIC50                    =    5.38
 3  O=C1Nc2cc(Br)ccc2/C1=C1/Nc2ccccc2/C1=N\OCCN(CCO)CCO              pIC50                    =    5.18
 4  CN(CCO/N=C1/C(=C2/C(=O)Nc3cc(Br)ccc32)Nc2ccccc21)CC(O)CO (stereo unspecified)              pIC50                    =    5.24
 5  O=C1Nc2cc(Br)ccc2/C1=C1/Nc2ccccc2/C1=N\OCC(O)CO (stereo unspecified)              pIC50                    =    6.03
 6  COCCN1CCN(CCO/N=C2/C(=C3/C(=O)Nc4cc(Br)ccc43)Nc3ccccc32)CC1.Cl.Cl              pIC50                    <    4.00
 7  O=C1Nc2cc(Br)ccc2/C1=C1/Nc2ccccc2/C1=N\OCCO              pIC50                    <    4.00
 8  CCN(CC)C(=O)O/N=C1/C(=C2/C(=O)Nc3cc(Br)ccc32)Nc2ccccc21              pIC50                    <    4.00
 9  CN1CCN(CCO/N=C2/C(=C3/C(=O)Nc4cc(Br)ccc43)Nc3ccccc32)CC1.Cl.Cl              pIC50                    =    5.27
10  O=C1Nc2cc(Br)ccc2/C1=C1/Nc2ccccc2/C1=N\OCCBr              pIC50                    <    4.00
11  CCN(CC)CCO/N=C1/C(=C2/C(=O)Nc3cc(Br)ccc32)Nc2ccccc21.Cl              pIC50                    <    4.00

----------
Measured log10 of IC50, listed per entry.
# system-tested: Glycogen synthase kinase-3 (Homo sapiens, UniProt P49840+P49841)
# protocol: Inhibition of GSK3-mediated beta-catenin phosphorylation in human SH-SY5Y cells in presence of MG132 by ELISA
measurement-label: log10 of IC50 (log10 of the value in nM)

> print(dat)
                               query.smiles  measurement.label  number
1  Cl.Cl.O=C1Nc2cc(Br)ccc2/C1=C1/Nc2ccccc2/C1=N\OCCN1CCNCC1      log10 of IC50    2.34
2  O=C1Nc2cc(Br)ccc2/C1=C1/Nc2ccccc2/C1=N\OCCN1CCN(CCOCCO)CC1      log10 of IC50    3.46
3  Cl.O=C1Nc2cc(Br)ccc2/C1=C1/Nc2ccccc2/C1=N\OCCN(CCO)CCO      log10 of IC50    2.51
4  O=C1Nc2cc(Br)ccc2/C1=C1/Nc2ccccc2/C1=N\OCCN1CCN(CCO)CC1      log10 of IC50    2.85
5  O=C1Nc2cc(Br)ccc2/C1=C1/Nc2ccccc2/C1=N\OCCN1CCNCC1      log10 of IC50    2.18
